Record form. Attribute: Kd. Fill in for each entry.
target: T1, Prostate specific antigen (PSA), purified from human seminal fluid (human, UniProt P07288 25-261); test: SPR, PSA captured by MAb H117, 30 µM Zn2+, single fit, 3.4 µM peptide
T1 construct: mature; Mostly captured on wells by MAb 5E4 (IFMA) or on the chip by MAb H117 (SPR); in solution in enzyme assays; also called free PSA; active PSA

Input CVFTSDYAFC (other) [GST-A-1 (peptide A-1 expressed as glutathione S-transferase fusion protein)] . Output Kd: 1000 nM

Input CVFAHNYDYLVC (other) [GST-B-2 (peptide B-2 expressed as glutathione S-transferase fusion protein)] . Output Kd: 800 nM
